Target of assay: Ephrin type-A receptor 2 (Homo sapiens)
Sequence (P29317 whole entry): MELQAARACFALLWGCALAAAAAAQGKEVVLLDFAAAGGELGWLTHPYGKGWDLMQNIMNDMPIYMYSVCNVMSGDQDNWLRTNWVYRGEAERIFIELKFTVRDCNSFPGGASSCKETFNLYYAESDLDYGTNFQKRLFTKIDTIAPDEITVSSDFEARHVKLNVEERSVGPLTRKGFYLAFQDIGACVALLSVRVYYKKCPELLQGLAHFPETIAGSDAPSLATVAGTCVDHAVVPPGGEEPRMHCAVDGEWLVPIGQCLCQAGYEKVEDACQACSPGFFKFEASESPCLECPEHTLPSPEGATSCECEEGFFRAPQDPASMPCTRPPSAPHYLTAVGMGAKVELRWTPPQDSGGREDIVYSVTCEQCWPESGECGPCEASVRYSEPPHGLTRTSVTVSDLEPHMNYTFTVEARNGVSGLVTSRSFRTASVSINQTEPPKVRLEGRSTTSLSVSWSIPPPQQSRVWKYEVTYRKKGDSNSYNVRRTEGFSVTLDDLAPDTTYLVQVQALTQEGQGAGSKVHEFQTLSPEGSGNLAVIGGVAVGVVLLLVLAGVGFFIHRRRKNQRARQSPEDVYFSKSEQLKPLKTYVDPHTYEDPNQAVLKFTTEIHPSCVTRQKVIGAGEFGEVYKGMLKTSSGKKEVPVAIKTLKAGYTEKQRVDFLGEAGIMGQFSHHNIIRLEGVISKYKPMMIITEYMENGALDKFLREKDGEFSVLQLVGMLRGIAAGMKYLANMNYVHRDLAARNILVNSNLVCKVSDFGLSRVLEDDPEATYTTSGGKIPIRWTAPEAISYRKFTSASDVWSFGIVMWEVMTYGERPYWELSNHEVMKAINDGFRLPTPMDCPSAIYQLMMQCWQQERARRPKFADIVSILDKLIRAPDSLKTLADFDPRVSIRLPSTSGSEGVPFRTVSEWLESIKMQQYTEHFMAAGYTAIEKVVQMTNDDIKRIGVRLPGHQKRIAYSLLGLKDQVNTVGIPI
Parameter deltaTm: see the listing below.

Sample answers from the record:
>  <Smiles data>
COC(=O)c1cc(-c2cnc3nc2NCCCNS(=O)(=O)c2cccc(c2)N3)ccc1F

>  <Quantity measured>
deltaTm

>  <Reported result>
2.1 K

$$$$
>  <Smiles data>
COc1cc(-c2cnc3nc2NCCCNS(=O)(=O)c2cc(ccc2C)N3)ccc1F

>  <Quantity measured>
deltaTm

>  <Reported result>
7.6 K

$$$$
>  <Smiles data>
O=S1(=O)NCCCNc2nc(ncc2-c2cccc(Cl)c2F)Nc2cccc1c2

>  <Quantity measured>
deltaTm

>  <Reported result>
7 K

$$$$
>  <Smiles data>
O=S1(=O)NCCCNc2nc(ncc2-c2cc(Cl)c(Cl)cc2F)Nc2cccc1c2

>  <Quantity measured>
deltaTm

>  <Reported result>
9.5 K

$$$$

Complete the entry with deltaTm for O=S1(=O)NCCCNc2nc(ncc2-c2cc(Cl)c(F)cc2F)Nc2cccc1c2
7.5 K
